assayTarget: RORγ ligand binding domain (LBD) (Homo sapiens, UniProt P51449)
Construct: made in house; host or cells: E. coli BL-21 (BL3), vector pDEST15
assayText: TR-FRET Activity Assay (ligand sensing, RORγ-LBD / coactivator peptide interaction, LANCE)
Assay type: biochemical
measurementConditions: first value of the cell FRET/FF/REN; TR-FRET activity assay; read-out: pIC50 (FRET) (converted)
experimentalEndpoint: log10 of IC50 (log10 of the value in µM)
Values below are the log10 of the recorded IC50, with µM as the unit.

Before answering, review these 4 worked examples.
Cc1c(C(=O)NC2COC2)cc(-c2cc(C3(C)CC3)c3c(c2)C2(CCO3)CC2)n1CC1CCCCC1 : -0.60
Cc1c(C(=O)NCc2nc(C(=O)O)co2)cc(-c2cc(C(C)(C)C)c3c(c2)C2(CCO3)CC2)n1CC1CCCCC1 : 0.60
Cc1c(C(=O)NC2COC2)cc(-c2cc(C(C)(C)C)cc(C(C)(C)C)c2)n1CC1Cc2ccccc2C1 : -0.20
Cc1c(C(=O)NCC(C)(C)C(=O)O)cc(-c2cc(C(=O)NC(C)(C)C)cc(C3(C)CC3)c2)n1CC1CCCCC1 : 0.50

Fill in the blank: the reported log10 of IC50 of "Cc1c(C(=O)NCC2(O)COC2)cc(-c2cc(C(C)(C)C)c3c(c2)C2(CCO3)CC2)n1CC1CCCCC1" is ____.
-0.10

Fill in the blank: the reported log10 of IC50 of "Cc1c(C(=O)NC2CCOCC2)cc(-c2cnc(S(=O)(=O)NC(C)(C)C)c(C(F)(F)F)c2)n1CC1CCCCC1" is ____.
0.20

Fill in the blank: the reported log10 of IC50 of "Cc1c(C(=O)NCC2(C)COC2)cc(-c2cc(S(=O)(=O)N3CCCCC3)c3ccccn23)n1CC1CCCCC1" is ____.
0.60

Fill in the blank: the reported log10 of IC50 of "Cc1c(C(=O)NCC2COC2)cc(-c2ccc(S(=O)(=O)NC(C)(C)C)c(C(C)(C)C)c2)n1CC1CCCCC1" is ____.
-0.20

###

pIC50 (FF): recorded values
assayTarget: RORγ (UniProt P51449)
assayText: RORγ Gal4 Reporter Gene Assay in 293T cells (firefly and renilla luciferase)
Format: cell-based, human
measurementConditions: second value of the cell; Gal4 reporter gene assay in 293T cells, firefly luciferase
Number only, please.

Fill in the blank: the reported pIC50 (FF) of "Cc1c(C(=O)NC2CCOCC2)cc(-c2ccc(S(=O)(=O)NC(C)(C)C)c(C(F)(F)F)c2)n1CC1CCC1" is ____.
7.5

Fill in the blank: the reported pIC50 (FF) of COC(C)(C)c1cc(-c2cc(C(=O)NC3CCOCC3)c(C)n2CC2CCCCC2)cc(C(C)NC(C)C)c1 (centres unmarked) is ____.
6.3

Fill in the blank: the reported pIC50 (FF) of "Cc1c(C(=O)NCC(C)(C)C(=O)O)cc(-c2cc(C(C)(C)C)c3c(c2)C(C)(C)C(=O)N3C)n1CC1CCCCC1" is ____.
7.0

Fill in the blank: the reported pIC50 (FF) of "Cc1c(C(=O)N[C@H]2C[C@H](C(=O)O)C2)cc(-c2cc(C(=O)NCC(F)(F)F)cc(C3(C)CC3)c2)n1CC1CCCCC1" is ____.
6.7

Fill in the blank: the reported pIC50 (FF) of "Cc1c(C(=O)N[C@H]2C[C@H](C(=O)O)C2)cc(-c2cc(OC(F)(F)F)cc(C3(C)CC3)c2)n1CC1CCCCC1" is ____.
7.7

Fill in the blank: the reported pIC50 (FF) of "Cc1c(C(=O)NC2CCOCC2)cc(-c2cc(Cl)c(S(=O)(=O)NC(C)(C)C)c(Cl)c2)n1CC1CCCCC1" is ____.
7.6

Fill in the blank: the reported pIC50 (FF) of "Cc1c(C(=O)NCC(C)(C)C(=O)NCCS(C)(=O)=O)cc(-c2cc(C(C)(C)C)c3c(c2)C2(CCO3)CC2)n1CC1CCCCC1" is ____.
6.9

Fill in the blank: the reported pIC50 (FF) of "Cc1c(C(=O)NCC2(O)CCOCC2)cc(-c2cc(C(C)(C)C)c3c(c2)C(C)(C)C(=O)N3C)n1CC1CCCCC1" is ____.
7.6

Fill in the blank: the reported pIC50 (FF) of "Cc1c(C(=O)NCCCCCO)cc(-c2ccc(S(=O)(=O)NC(C)(C)C)c(C(C)(C)C)c2)n1CC1CCCCC1" is ____.
7.2

Fill in the blank: the reported pIC50 (FF) of "Cc1noc2ccc(-c3cc(C(N)=O)c(C)n3CC3CCCCC3)cc12" is ____.
6.2

Fill in the blank: the reported pIC50 (FF) of "Cc1c(C(=O)NC2CCOCC2)cc(-c2cc(C(=O)NCC(F)(F)F)cc(C3(C)CC3)c2)n1CC1CCCCC1" is ____.
7.5

Fill in the blank: the reported pIC50 (FF) of "Cc1c(C(=O)N[C@H]2C[C@H](C(=O)O)C2)cc(-c2cc(Cl)cc(C3(C)CC3)c2)n1CC1CCCCC1" is ____.
7.1

Fill in the blank: the reported pIC50 (FF) of "Cc1c(C(=O)N2CCS(=O)(=O)CC2)cc(-c2ccc(S(=O)(=O)NC(C)(C)C)c(C(F)(F)F)c2)n1CC1CCCCC1" is ____.
6.6

###

assayTarget: RORγ ligand binding domain (LBD) (Homo sapiens)
Construct: made in house; host or cells: E. coli BL-21 (BL3), vector pDEST15
Sequence (P51449 269-508 limits assumed): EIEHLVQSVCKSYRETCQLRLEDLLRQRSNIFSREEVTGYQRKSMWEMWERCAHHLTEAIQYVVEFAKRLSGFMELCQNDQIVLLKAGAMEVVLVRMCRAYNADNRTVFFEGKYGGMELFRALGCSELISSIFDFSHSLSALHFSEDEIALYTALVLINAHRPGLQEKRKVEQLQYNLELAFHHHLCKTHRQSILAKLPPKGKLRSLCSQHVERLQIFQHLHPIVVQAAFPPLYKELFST
assayText: TR-FRET Activity Assay (ligand sensing, RORγ-LBD / coactivator peptide interaction, LANCE)
Type: biochemical
measurementConditions: first value of the cell FRET/FF/REN; TR-FRET activity assay; read-out: pIC50 (FRET) (converted)
Exam item: assign met to entries whose IC50 is below 300 nM and not met to entries at or above 300 nM. Note that a value of exactly 300 nM receives not met.

Cc1c(C(=O)NCCc2nn[nH]n2)cc(-c2ccc(S(=O)(=O)NC(C)(C)C)c(C(F)(F)F)c2)n1CC1CCCCC1 : not met

Now look at this entry.
Say whether its IC50 is strictly beneath 300 nM. Entry: "Cc1c(C(=O)NCCc2noc(=O)[nH]2)cc(-c2ccc(S(=O)(=O)NC(C)(C)C)c(C(F)(F)F)c2)n1CC1CCCCC1"
met

###

pIC50 (FF): recorded values
assayTarget: RORγ (UniProt P51449)
assayText: RORγ Gal4 Reporter Gene Assay in 293T cells (firefly and renilla luciferase)
Format: cell-based, human
measurementConditions: second value of the cell; Gal4 reporter gene assay in 293T cells, firefly luciferase
Number only, please.

Fill in the blank: the reported pIC50 (FF) of "Cc1c(C(=O)NC2CCOCC2)cc(-c2ccc(S(=O)(=O)NCC(F)(F)F)c(C(C)(C)C)c2)n1CC1CCCCC1" is ____.
7.7

Fill in the blank: the reported pIC50 (FF) of "Cc1c(C(=O)N[C@H]2C[C@](C)(C(=O)O)C2)cc(-c2ccc(S(=O)(=O)NC(C)(C)C)c(C(F)F)c2)n1CC1CCCCC1" is ____.
6.8

Fill in the blank: the reported pIC50 (FF) of "COC(=O)C(C)(C)CCNC(=O)c1cc(-c2cc(C(C)(C)C)cc(C3(C)CC3)c2)n(CC2CCCCC2)c1C" is ____.
6.7

Fill in the blank: the reported pIC50 (FF) of Cc1c(C(=O)NC2COC2)cc(-c2cc(C(C)(C)C)cc(C(C)(C)C)c2)n1CC1CC2CCC1C2 (stereo not shown) is ____.
6.8

###

IC50: recorded values
assayTarget: RORγ ligand binding domain (LBD) (Homo sapiens, UniProt P51449)
Construct: made in house; host or cells: E. coli BL-21 (BL3), vector pDEST15
assayText: TR-FRET Activity Assay (ligand sensing, RORγ-LBD / coactivator peptide interaction, LANCE)
Type: biochemical
measurementConditions: first value of the cell FRET/FF/REN; TR-FRET activity assay; read-out: pIC50 (FRET) (converted)
Just the number in nM, nothing appended.

Cc1c(C(=O)NCCS(N)(=O)=O)cc(-c2cc(C(C)(C)O)cc(C3(C)CC3)c2)n1CC1CCCCC1 [17/315] : 1260
Cc1c(C(=O)NC2COC2)cc(-c2cc(C(F)(F)F)c(=O)n(CC(C)(C)C)c2)n1CC1CCCCC1 [9/14] : 7940
Cc1c(C(=O)NC2COC2)cc(-c2cc(C(C)(C)C)cc(C(C)(C)C)c2)n1S(=O)(=O)N1CCCCC1 [Example 7] : 316

Note: attention shifts to another entry.
# value lookup — system RORγ ligand binding domain (LBD) (Homo sapiens, UniProt P51449), readout IC50, item Cc1c(S(=O)(=O)NC(C)(C)C)ccc(-c2cc(C(=O)N[C@H]3C[C@H](C(=O)O)C3)c(C)n2CC2CCCCC2)c1Cl [17/275]
631
